ASSAY_REMARKS: Inhibition of quorum sensing system in Pseudomonas aeruginosa PAO1 MH602 harboring lasB promoter fused with GFP-ASV assessed as reduction in GFP-ASV reporter protein expression at 266 uM measured every 30 mins relative to control
Class yes: inhibition at least 60%. Class no: inhibition below 60%.

                                   compound  class_label
0  CCCCCC(OC(=O)CC(=O)N1CCN(/[N+]([O-])=N/OC)CC1)C1=CC(=C(Br)Br)OC1=O (stereo unspecified)          yes
1  CCCCCCCCCCCC(OC(=O)CCC(=O)N1CCN(/[N+]([O-])=N/OC)CC1)C1=CC(=C(Br)Br)OC1=O (stereo unspecified)           no
2  CCCC(OC(=O)CCO[N+](=O)[O-])C1=CC(=C(Br)Br)OC1=O (stereo unspecified)          yes

Dear colleague, could you confirm whether CCCCCCC(O[N+](=O)[O-])C1=CC(=C(Br)Br)OC1=O (stereo unspecified) has inhibition at or above 60%?
yes

# check: inhibition of "CCCCC1=CC(=C(Br)Br)OC1=O" is greater than or equal to 60%
yes

Check if inhibition >= 60% (inclusive). Item: CCCC(SC(=O)CCCCCO[N+](=O)[O-])C1=CC(=C(Br)Br)OC1=O (stereo unspecified)
no

Decide: is the reported value of inhibition for CCCC(OC(=O)CCCCCCCCCCO[N+](=O)[O-])C1=CC(=C(Br)Br)OC1=O (stereo unspecified) equal to or greater than 60%?
no

// provenance: ChEMBL document CHEMBL3102710
